Measured values drawn from patent US20240109865A1 for this set.

- assay-target: FGFR3-BAIAP2L1 Ba/F3 cells (Homo sapiens, UniProt P22607)
- Sequence (P22607 23-806 limits assumed, change not shown): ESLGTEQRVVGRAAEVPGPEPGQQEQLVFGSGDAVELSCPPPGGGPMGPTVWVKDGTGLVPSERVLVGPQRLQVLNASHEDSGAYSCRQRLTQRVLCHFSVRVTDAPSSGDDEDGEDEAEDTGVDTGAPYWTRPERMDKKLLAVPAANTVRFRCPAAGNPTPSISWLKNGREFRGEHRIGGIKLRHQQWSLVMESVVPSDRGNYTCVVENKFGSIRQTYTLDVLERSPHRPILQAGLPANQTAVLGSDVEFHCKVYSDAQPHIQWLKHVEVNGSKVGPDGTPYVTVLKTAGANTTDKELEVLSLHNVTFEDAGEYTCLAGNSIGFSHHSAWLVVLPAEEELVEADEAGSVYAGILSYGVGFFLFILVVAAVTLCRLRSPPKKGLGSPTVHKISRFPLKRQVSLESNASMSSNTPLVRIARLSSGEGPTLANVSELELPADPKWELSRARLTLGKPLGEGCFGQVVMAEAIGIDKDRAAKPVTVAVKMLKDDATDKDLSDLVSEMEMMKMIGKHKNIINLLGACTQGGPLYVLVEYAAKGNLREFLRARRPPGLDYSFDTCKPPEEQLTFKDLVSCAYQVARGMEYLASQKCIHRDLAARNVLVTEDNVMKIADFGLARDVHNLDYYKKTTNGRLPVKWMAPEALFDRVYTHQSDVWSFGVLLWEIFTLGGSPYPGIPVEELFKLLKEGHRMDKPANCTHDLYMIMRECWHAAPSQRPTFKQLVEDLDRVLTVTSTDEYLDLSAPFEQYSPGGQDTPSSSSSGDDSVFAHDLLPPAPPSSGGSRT
- method-summary: Ba/F3 cell viability assay (CellTiter-Glo 2.0), FGFR3-BAIAP2L1 Ba/F3
- Assay type: cell-based
- condition-notes: FGFR3 > FGFR1 selectivity ratio in Ba/F3 FGFR fusion cell based assays
In this section we review reported Ba/F3 FGFR1/FGFR3 Selectivity values for a set of molecules.
Just the number, please.

| smiles-input | Ba/F3 FGFR1/FGFR3 Selectivity |
| --- | --- |
| Cc1cnnc(C)c1[C@H](C)Oc1ccc2[nH]nc(-c3ccc(N4CC5(CCS(=O)(=O)C5)C4)nc3)c2c1 | 2 |
| CCS(=O)(=O)N1CC2(CN(c3ncc(-c4n[nH]c5ccc(O[C@H](C)c6c(Cl)cncc6Cl)cc45)cn3)C2)C1 | 8 |
| COC(=O)N1CC2(C1)CN(c1ccc(-c3n[nH]c4ccc(O[C@H](C)c5c(Cl)cncc5Cl)cc34)cn1)C2 | 15 |
| C[C@@H](Oc1ccc2[nH]nc(-c3ccc(N4CCC5(CCN(C)C5)CC4)nc3)c2c1)c1c(Cl)cncc1Cl | 12 |
| C[C@@H](Oc1ccc2[nH]nc(-c3cnc(N4CC5(CCN(S(C)(=O)=O)C5)C4)nc3)c2c1)c1c(Cl)cncc1Cl | 7 |

INPUT: I have this molecule here, `C[C@@H](Oc1ccc2[nH]nc(-c3ccc(C4CCN(S(C)(=O)=O)CC4)nc3)c2c1)c1c(Cl)cncc1Cl` , and I need its recorded Ba/F3 FGFR1/FGFR3 Selectivity.
OUTPUT: 20

INPUT: I have this molecule here, `C[C@@H](Oc1ccc2[nH]nc(-c3ccc(N4CC5(CCS(=O)(=O)C5)C4)nc3)c2c1)c1c(Cl)cncc1Cl` , and I need its recorded Ba/F3 FGFR1/FGFR3 Selectivity.
OUTPUT: 15

INPUT: I have this molecule here, `Cc1ncc(Cl)c([C@@H](C)Oc2ccc3[nH]nc(-c4cnn(C5CCOCC5)c4)c3c2)c1Cl` , and I need its recorded Ba/F3 FGFR1/FGFR3 Selectivity.
OUTPUT: 10

* * *

- assay-target: FGFR3 (Homo sapiens (Human), UniProt P22607)
- method-summary: Kinase assay, binding constants (Kd), kinase-tagged T7 phage, qPCR
outcome-measure: Kd

Sample answers from the record:
| smiles-input | outcome-measure | recorded-result |
| --- | --- | --- |
| C[C@@H](Oc1ccc2[nH]nc(-c3cnc(N4CCC5(CCCN5)CC4)nc3)c2c1)c1c(Cl)cncc1Cl | Kd | 1 to 20 nM |
| COC(=O)N1CC2(C1)CN(c1ccc(-c3n[nH]c4ccc(O[C@H](C)c5c(C)cnnc5C)cc34)cn1)C2 | Kd | 1 to 20 nM |
| C[C@@H](Oc1ccc2[nH]nc(-c3ccc(N4CC5(CCN5)C4)nc3)c2c1)c1c(Cl)cncc1Cl | Kd | 1 to 20 nM |
| C[C@@H](Oc1cc2c(-c3cnc(N4CC[C@@H]4C)c(C#N)c3)n[nH]c2cc1Cl)c1c(Cl)cncc1Cl | Kd | 100 to 300 nM |
| C[C@@H](Oc1ccc2[nH]nc(-c3cnc(N4CCN(C(=O)N5CCN(C)CC5)CC4)c(F)c3)c2c1)c1c(Cl)cncc1Cl | Kd | 1 to 20 nM |

INPUT: I have this compound here, `C[C@@H](Oc1ccc2[nH]nc(-c3ccc(N4CCNC(=O)CC4)nc3)c2c1)c1c(Cl)cncc1Cl` , and I need its recorded Kd.
OUTPUT: 1 to 20 nM

INPUT: I have this compound here, `COC1(C)CN(c2ccc(-c3n[nH]c4ccc(O[C@H](C)c5c(Cl)cnc(C)c5Cl)cc34)cn2)C1` , and I need its recorded Kd.
OUTPUT: 1 to 20 nM

INPUT: I have this compound here, `CCN1C2CC1CN(c1ccc(-c3n[nH]c4cc(OC)c(O[C@H](C)c5c(C)cnnc5C)cc34)cn1)C2` , and I need its recorded Kd.
OUTPUT: 1 to 20 nM

INPUT: I have this compound here, `COc1cc2[nH]nc(-c3cnc(N4CC5(C4)CN(S(C)(=O)=O)C5)c(C#N)c3)c2cc1O[C@H](C)c1c(Cl)cnc(C)c1Cl` , and I need its recorded Kd.
OUTPUT: 1 to 20 nM

INPUT: I have this compound here, `C[C@@H](Oc1ccc2[nH]nc(-c3cnc(N4CC5(C4)CN(S(C)(=O)=O)C5)nc3)c2c1)c1c(Cl)cncc1Cl` , and I need its recorded Kd.
OUTPUT: 1 to 20 nM

INPUT: I have this compound here, `C[C@@H](Oc1ccc2[nH]nc(-c3cnc(N4CC5(CCNCC5)C4)nc3)c2c1)c1c(Cl)cncc1Cl` , and I need its recorded Kd.
OUTPUT: 1 to 20 nM

* * *

In this section we review reported Kd values for a set of compounds.
- assay-target: FGFR4 (Homo sapiens (Human), UniProt P22455)
- Sequence (P22455 22-802): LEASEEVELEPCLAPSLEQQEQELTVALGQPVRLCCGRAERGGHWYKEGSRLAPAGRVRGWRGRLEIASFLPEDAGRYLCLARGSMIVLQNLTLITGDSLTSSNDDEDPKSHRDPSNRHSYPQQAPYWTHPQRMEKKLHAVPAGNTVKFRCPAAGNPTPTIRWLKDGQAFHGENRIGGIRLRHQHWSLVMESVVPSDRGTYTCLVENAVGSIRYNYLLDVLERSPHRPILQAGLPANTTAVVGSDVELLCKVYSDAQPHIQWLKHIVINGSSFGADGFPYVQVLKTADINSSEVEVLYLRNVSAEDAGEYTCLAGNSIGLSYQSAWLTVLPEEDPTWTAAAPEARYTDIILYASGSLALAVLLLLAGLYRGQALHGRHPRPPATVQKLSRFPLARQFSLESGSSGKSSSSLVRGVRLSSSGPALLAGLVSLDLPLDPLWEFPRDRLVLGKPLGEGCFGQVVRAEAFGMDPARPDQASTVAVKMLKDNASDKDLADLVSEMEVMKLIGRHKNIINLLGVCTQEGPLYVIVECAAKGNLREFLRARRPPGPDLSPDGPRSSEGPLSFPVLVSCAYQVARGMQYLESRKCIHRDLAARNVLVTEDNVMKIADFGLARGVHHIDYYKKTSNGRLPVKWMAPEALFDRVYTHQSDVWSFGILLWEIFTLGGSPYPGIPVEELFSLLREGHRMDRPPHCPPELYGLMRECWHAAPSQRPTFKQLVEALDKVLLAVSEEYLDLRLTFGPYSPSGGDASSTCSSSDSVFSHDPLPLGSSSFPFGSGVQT
- method-summary: Kinase assay, binding constants (Kd), kinase-tagged T7 phage, qPCR

Sample answers from the record:
| compound | assay-target | Kd |
| --- | --- | --- |
| C[C@@H](Oc1ccc2[nH]nc(-c3cnc(N4CCC[C@@H]4CO)c(C#N)c3)c2c1)c1c(Cl)cncc1Cl | FGFR4 (Homo sapiens (Human), UniProt P22455) | 1 to 20 nM |
| C[C@@H](Oc1ccc2[nH]nc(-c3cnn(C4CCS(=O)(=O)CC4)c3)c2c1)c1c(Cl)cncc1Cl | FGFR4 (Homo sapiens (Human), UniProt P22455) | 20 to 100 nM |
| C[C@@H](Oc1ccc2[nH]nc(-c3ccc(N4CCC5(CCOC5)CC4)nc3)c2c1)c1c(Cl)cncc1Cl | FGFR4 (Homo sapiens (Human), UniProt P22455) | 1 to 20 nM |
| C[C@@H](Oc1ccc2[nH]nc(-c3cnc(N4CCCNCC4)nc3)c2c1)c1c(Cl)cncc1Cl | FGFR4 (Homo sapiens (Human), UniProt P22455) | 1 to 20 nM |

INPUT: GET /values?readout=Kd&system=FGFR4 (Homo sapiens (Human), UniProt P22455)&item= `C[C@@H](Oc1ccc2[nH]nc(-c3cnc(Cl)nc3)c2c1)c1c(Cl)cncc1Cl`
OUTPUT: 20 to 100 nM

INPUT: GET /values?readout=Kd&system=FGFR4 (Homo sapiens (Human), UniProt P22455)&item= Cc1cnnc(C)c1[C@@H](C)Oc1ccc2[nH]nc(-c3cnc(N4CCN5C(=O)NCC5C4)c(C#N)c3)c2c1 (some centres unmarked)
OUTPUT: 1 to 20 nM

INPUT: GET /values?readout=Kd&system=FGFR4 (Homo sapiens (Human), UniProt P22455)&item= `Cc1cc2[nH]nc(-c3cnc(N4CC5(C4)CN(S(C)(=O)=O)C5)c(F)c3)c2cc1O[C@H](C)c1c(Cl)cnnc1Cl`
OUTPUT: 1 to 20 nM

* * *

In this section we review reported Kd values for a set of molecules.
- assay-target: UniProt:P22455
- method-summary: Kinase assay, binding constants (Kd), kinase-tagged T7 phage, qPCR
Structures can show the parent of a compound that is named as a salt.

Sample answers from the record:
| molecule | outcome-measure | recorded-result |
| --- | --- | --- |
| C[C@@H](Oc1ccc2[nH]nc(-c3ccc(N4CC5(C4)CN(S(C)(=O)=O)C5)nc3)c2c1)c1c(Cl)cnnc1Cl [Example 233] | Kd | > 300 nM |
| Cc1cnnc(C)c1[C@@H](C)Oc1ccc2[nH]nc(-c3cnc(N4CC5(C4)CN(S(C)(=O)=O)C5)nc3)c2c1 | Kd | 1 to 20 nM |
| C[C@@H](Oc1ccc2[nH]nc(-c3ccc(N4CCC5(CC4)CN(C)CC(=O)N5)nc3)c2c1)c1c(Cl)cncc1Cl | Kd | 1 to 20 nM |
| CCOC(=O)N1CCCC2(C1)CN(c1ccc(-c3n[nH]c4ccc(O[C@H](C)c5c(C)cnnc5C)cc34)cn1)C2 | Kd | 1 to 20 nM |
| C[C@@H](Oc1ccc2[nH]nc(-c3ccc(N4CCNC5(CC5)C4)nc3)c2c1)c1c(Cl)cncc1Cl | Kd | 1 to 20 nM |
| C[C@@H](Oc1ccc2[nH]nc(-c3ccc(N4CC5(CCNCC5)C4)nc3)c2c1)c1c(Cl)cncc1Cl | Kd | 1 to 20 nM |

INPUT: I have this molecule here, C[C@@H](Oc1ccc2[nH]nc(-c3ccc(N4CCNCC4)nc3)c2c1)c1c(Cl)cncc1Cl [Example 2, dihydrochloride] , and I need its recorded Kd.
OUTPUT: 1 to 20 nM

INPUT: I have this molecule here, `Cc1cnnc(C)c1[C@@H](C)Oc1ccc2[nH]nc(-c3cnc(N4CC(O)C4)c(C#N)c3)c2c1` , and I need its recorded Kd.
OUTPUT: 1 to 20 nM

INPUT: I have this molecule here, `C[C@@H](Oc1ccc2[nH]nc(-c3ccc(N4CCC[C@H]4CO)nc3)c2c1)c1c(Cl)cncc1Cl` , and I need its recorded Kd.
OUTPUT: 1 to 20 nM

INPUT: I have this molecule here, `C[C@@H](Oc1ccc2[nH]nc(-c3ccc(N4CCNC(=O)C4)nc3)c2c1)c1c(Cl)cncc1Cl` , and I need its recorded Kd.
OUTPUT: 1 to 20 nM

INPUT: I have this molecule here, `CCOC(=O)N1CC2(C1)CN(c1ccc(-c3n[nH]c4ccc(O[C@H](C)c5c(Cl)cnc(F)c5Cl)cc34)cn1)C2` , and I need its recorded Kd.
OUTPUT: 20 to 100 nM

INPUT: I have this molecule here, `Cc1cnnc(C)c1[C@H](C)Oc1ccc2[nH]nc(-c3cnc(N4CC5(CCS(=O)(=O)C5)C4)nc3)c2c1` , and I need its recorded Kd.
OUTPUT: > 300 nM

INPUT: I have this molecule here, `Cc1ncc(Cl)c([C@@H](C)Oc2cc3c(-c4cnc(N5CC6(C5)CN(S(C)(=O)=O)C6)c(F)c4)n[nH]c3cc2F)c1Cl` , and I need its recorded Kd.
OUTPUT: 1 to 20 nM

INPUT: I have this molecule here, Cc1ncc(Cl)c([C@@H](C)Oc2ccc3[nH]nc(-c4ccc(N5CC6(CCC(O)C6)C5)nc4)c3c2)c1Cl (some centres unmarked) , and I need its recorded Kd.
OUTPUT: 1 to 20 nM
